# Tested on: Streptococcus pneumoniae 1175
# Type: cell-based
# test context: Streptococcus pneumoniae 1175; microtiter broth dilution
property measured: MIC S. pneumo. 1175 (µg/mL)
Entry rule: numbers only, all in µg/mL.

| molecule | measurement unit | value reported |
| --- | --- | --- |
| CCC1OC(=O)C(C)C(=O)C(C)C(OC2OC(C)CC(N(C)C)C2O)C(C)(OC)CC(C)C(=O)C(C)C2N(C3CN(S(=O)(=O)c4ccc5oc(=O)[nH]c5c4)C3)C(=O)OC12C (centres unmarked) [Example 3.43] | µg/mL | 0.5 |

Moving on to another molecule below.
Q. # input molecule: CCC1OC(=O)C(C)C(=O)C(C)C(OC2OC(C)CC(N(C)C)C2O)C(C)(OC)CC(C)C(=O)C(C)C2N(CC3CN(C(=O)c4cccc(C#N)c4)C3)C(=O)OC12C (centres unmarked) ; wanted: its MIC S. pneumo. 1175
A. 0.39

----------
Each record here notes measured MIC S. pneumo. 1175.
# System: Streptococcus pneumoniae 1175
# Format: cell-based
# test context: Streptococcus pneumoniae 1175; microtiter broth dilution
Entry rule: numbers only, all in mg/L.

| compound | value reported |
| --- | --- |
| CCC1OC(=O)C(C)C(=O)C(C)C(OC2OC(C)CC(N(C)C)C2O)C(C)(OC)CC(C)C(=O)C(C)C2N(C3CN(Cc4cnc5ncccc5c4)C3)C(=O)OC12C (centres unmarked) | 0.25 |
| CCC1OC(=O)C(C)C(=O)C(C)C(OC2OC(C)CC(N(C)C)C2O)C(C)(OC)CC(C)C(=O)C(C)C2N(C3CN(S(=O)(=O)c4ccc(OC)cc4OC)C3)C(=O)OC12C (centres unmarked) | 0.12 |

Moving on to another compound below.
Q. # input compound: CCC1OC(=O)C(C)C(=O)C(C)C(OC2OC(C)CC(N(C)C)C2O)C(C)(OC)CC(C)C(=O)C(C)C2N(C3CN(C(C)c4ccncc4)C3)C(=O)OC12C (stereo not drawn) [Example 1.22, 1S-(pyridin-4-yl)ethyl] ; wanted: its MIC S. pneumo. 1175
A. 1

----------
Each record here notes measured MIC S. pneumo. 1095.
# Tested on: Streptococcus pneumoniae 1095
# Assay type: cell-based
# test context: S. pneumoniae 1095 (ermB); microtiter broth dilution
Entry rule: numbers only, all in µg/mL.

# annotated cases, reported MIC S. pneumo. 1095 shown
| molecule | value reported |
| --- | --- |
| CCC1OC(=O)C(C)C(=O)C(C)C(OC2OC(C)CC(N(C)C)C2O)C(C)(OC)CC(C)C(=O)C(C)C2N(CC3CCCN3C(=O)c3ccc4ncccc4c3)C(=O)OC12C (stereo not shown) [12.06] | 0.25 |
| CC[C@H]1OC(=O)[C@H](C)C(=O)[C@H](C)[C@@H](O[C@@H]2O[C@H](C)C[C@H](N(C)C)[C@H]2O)[C@](C)(OC)C[C@@H](C)C(=O)[C@H](C)[C@H]2N(CC3(O)CN(S(=O)(=O)c4ccc5[nH]c(=O)oc5c4)C3)C(=O)O[C@]12C | 64 |
| CCC1OC(=O)C(C)C(=O)C(C)C(OC2OC(C)CC(N(C)C)C2O)C(C)(OC)CC(C)C(=O)C(C)C2N(CC3CCCN3Cc3c[nH]nn3)C(=O)OC12C (stereo not shown) | 0.25 |
| CC[C@H]1OC(=O)[C@H](C)C(=O)[C@H](C)[C@@H](O[C@@H]2O[C@H](C)C[C@H](N(C)C)[C@H]2O)[C@](C)(OC)C[C@@H](C)C(=O)[C@H](C)[C@H]2N(CC3(O)CN(C(=O)c4cncc5ccccc45)C3)C(=O)O[C@]12C | 0.5 |
| CCC1OC(=O)C(C)C(=O)C(C)C(OC2OC(C)CC(N(C)C)C2O)C(C)(OC)CC(C)C(=O)C(C)C2N(CC3(O)CN(C(=O)c4ccc5ncccc5c4)C3)C(=O)OC12C (stereo not shown) | 2 |

Q. # input molecule: `CC[C@H]1OC(=O)[C@H](C)C(=O)[C@H](C)[C@@H](O[C@@H]2O[C@H](C)C[C@H](N(C)C)[C@H]2O)[C@](C)(OC)C[C@@H](C)C(=O)[C@H](C)[C@H]2N(CC3(C)CN(Cc4nc5ccccc5[nH]4)C3)C(=O)O[C@]12C.O=CO` ; wanted: its MIC S. pneumo. 1095
A. 0.25

Q. # input molecule: CCC1OC(=O)C(C)C(=O)C(C)C(OC2OC(C)CC(N(C)C)C2O)C(C)(OC)CC(C)C(=O)C(C)C2N(CC3CCCN3C(=O)c3cc4ccncc4[nH]3)C(=O)OC12C (stereo not shown) ; wanted: its MIC S. pneumo. 1095
A. 0.12

Q. # input molecule: CCC1OC(=O)C(C)C(=O)C(C)C(OC2OC(C)CC(N(C)C)C2O)C(C)(OC)CC(C)C(=O)C(C)C2N(CC3CCN(Cc4ccc(-c5ccccn5)cc4)C3)C(=O)OC12C (stereo not shown) ; wanted: its MIC S. pneumo. 1095
A. 16

----------
Each record here notes measured MIC S. pneumo. 1175.
# Test system: Streptococcus pneumoniae 1175
# Assay type: cell-based
# test context: S. pneumoniae 1175 (mefA); microtiter broth dilution
Entry rule: numbers only, all in µg/mL.

# annotated cases, reported MIC S. pneumo. 1175 shown
| compound | target | measurement unit | MIC S. pneumo. 1175 |
| --- | --- | --- | --- |
| CCC1OC(=O)C(C)C(=O)C(C)C(OC2OC(C)CC(N(C)C)C2O)C(C)(OC)CC(C)C(=O)C(C)C2N(CC3CCCN3C(=O)c3nc4cncnc4[nH]3)C(=O)OC12C (stereo not shown) | Streptococcus pneumoniae 1175 | µg/mL | 1 |
| CCC1OC(=O)C(C)C(=O)C(C)C(OC2OC(C)CC(N(C)C)C2O)C(C)(OC)CC(C)C(=O)C(C)C2N(CC3CCCN3C(=O)c3ccc4ncccc4c3)C(=O)OC12C (stereo not shown) [12.06] | Streptococcus pneumoniae 1175 | µg/mL | 1 |
| CCC1OC(=O)C(C)C(=O)C(C)C(OC2OC(C)CC(N(C)C)C2O)C(C)(OC)CC(C)C(=O)C(C)C2N(CC3CCCN3C(=O)c3cncc4ccccc34)C(=O)OC12C.O=CO (stereo not shown) | Streptococcus pneumoniae 1175 | µg/mL | 0.12 |
| CCC1OC(=O)C(C)(F)C(=O)C(C)C(OC2OC(C)CC(N(C)C)C2O)C(C)(OC)CC(C)C(=O)C(C)C2N(CC3CCCN3C(=O)c3nccc4ccccc34)C(=O)OC12C (stereo not shown) | Streptococcus pneumoniae 1175 | µg/mL | 0.12 |
| CCC1OC(=O)C(C)C(=O)C(C)C(OC2OC(C)CC(N(C)C)C2O)C(C)(OC)CC(C)C(=O)C(C)C2N(CC3CCN(Cc4cccc(OC)n4)CC3)C(=O)OC12C (stereo not shown) | Streptococcus pneumoniae 1175 | µg/mL | 0.5 |
| CCC1OC(=O)C(C)C(=O)C(C)C(OC2OC(C)CC(N(C)C)C2O)C(C)(OC)CC(C)C(=O)C(C)C2N(CC3CCN(Cc4ccc5cccc(O)c5n4)C3)C(=O)OC12C (stereo not shown) | Streptococcus pneumoniae 1175 | µg/mL | 0.25 |
| CC[C@H]1OC(=O)[C@H](C)C(=O)[C@H](C)[C@@H](O[C@@H]2O[C@H](C)C[C@H](N(C)C)[C@H]2O)[C@](C)(OC)C[C@@H](C)C(=O)[C@H](C)[C@H]2N(CC3(O)CN(C(=O)c4ccc5cccnc5c4)C3)C(=O)O[C@]12C | Streptococcus pneumoniae 1175 | µg/mL | 1 |
| CCC1OC(=O)C(C)C(=O)C(C)C(OC2OC(C)CC(N(C)C)C2O)C(C)(OC)CC(C)C(=O)C(C)C2N(CC3CCCN3C(=O)c3ccnc4ccccc34)C(=O)OC12C (stereo not shown) | Streptococcus pneumoniae 1175 | µg/mL | 2 |

Moving on to another compound below.
Q. I'm curious: which MIC S. pneumo. 1175 was measured for CCC1OC(=O)C(C)C(=O)C(C)C(OC2OC(C)CC(N(C)C)C2O)C(C)(OC)CC(C)C(=O)C(C)C2N(CC3(O)CN(C(=O)c4ccc5ncccc5c4)C3)C(=O)OC12C (stereo not shown) tested on Streptococcus pneumoniae 1175?
A. 1

----------
Each record here notes measured MIC H. influenzae 1218.
# Test system: Haemophilus influenzae 1218
# assay text: MIC, microtiter broth dilution (NCCLS M100-S14), H. influenzae 1218 (susceptible)
# Type: cell-based
# test context: Haemophilus influenzae 1218

| molecule | value reported |
| --- | --- |
| CCC1OC(=O)C(C)C(=O)C(C)C(OC2OC(C)CC(N(C)C)C2O)C(C)(OC)CC(C)C(=O)C(C)C2N(C3CN(S(=O)(=O)c4cccc(Cl)c4)C3)C(=O)OC12C (stereo not shown) | 025 µg/mL |

Q. # input molecule: CCC1OC(=O)C(C)C(=O)C(C)C(OC2OC(C)CC(N(C)C)C2O)C(C)(OC)CC(C)C(=O)C(C)C2N(C3CN(S(=O)(=O)c4cn(C)c(C)n4)C3)C(=O)OC12C (stereo not shown) ; wanted: its MIC H. influenzae 1218
A. 1 µg/mL

Q. # input molecule: CCC1OC(=O)C(C)C(=O)C(C)C(OC2OC(C)CC(N(C)C)C2O)C(C)(OC)CC(C)C(=O)C(C)C2N(C3CN(Cc4cccn5nccc45)C3)C(=O)OC12C (stereo not shown) ; wanted: its MIC H. influenzae 1218
A. 1 µg/mL
